Molecular target: S-methyl-5'-thioadenosine phosphorylase (Homo sapiens)
Test: Kcat against human methylthioadenosine phosphorylase expressed in Escherichia coli BL21 DE3 cells
Kindly supply the reported K cat values for the records listed here.

## Task State the measured K cat (S-methyl-5'-thioadenosine phosphorylase (Homo sapiens)) of CSC[C@H]1O[C@@H](n2cnc3c(N)ncnc32)C(F)[C@@H]1O (stereo partly specified)
## Result 0.0004 s⁻¹

## Task Answer with K cat of `CSC[C@H]1O[C@@H](n2cnc3c(N)ncnc32)C[C@@H]1O` measured for S-methyl-5'-thioadenosine phosphorylase (Homo sapiens).
## Result 0.28 s⁻¹

## Task Report measured K cat on S-methyl-5'-thioadenosine phosphorylase (Homo sapiens); entry: `CC(C)CCSC[C@H]1O[C@@H](n2cnc3c(N)ncnc32)[C@H](O)[C@@H]1O`
## Result 5.5 s⁻¹

## Task Provide the reported K cat (system: S-methyl-5'-thioadenosine phosphorylase (Homo sapiens)) for CSC[C@H]1O[C@@H](n2cnc3c(N)ncnc32)C(N=[N+]=[N-])[C@@H]1O (stereo partly specified)
## Result 0.04 s⁻¹

## Task Write down the reported K cat (system: S-methyl-5'-thioadenosine phosphorylase (Homo sapiens)) of `Nc1ncnc2c1ncn2[C@@H]1O[C@H](CSCCc2ccccn2)[C@@H](O)[C@H]1O`
## Result 1.01 s⁻¹

## Task State recorded K cat with S-methyl-5'-thioadenosine phosphorylase (Homo sapiens), entry CCC(C)CSC[C@H]1O[C@@H](n2cnc3c(N)ncnc32)[C@H](O)[C@@H]1O (stereo partly specified) , no comment.
## Result 4.2 s⁻¹

## Task Give S-methyl-5'-thioadenosine phosphorylase (Homo sapiens) K cat for the following compound: CSC[C@H]1O[C@@H](n2cnc3c(N)ncnc32)[C@H](O)[C@@H]1O (stereo in doubt; 7)
## Result 0.0065 s⁻¹

## Task # assay system S-methyl-5'-thioadenosine phosphorylase (Homo sapiens): give K cat of `Nc1ncnc2c1ncn2[C@@H]1O[C@H](COc2ccccc2)[C@@H](O)[C@H]1O`
## Result 1.11 s⁻¹

## Task Look up and report measured K cat (S-methyl-5'-thioadenosine phosphorylase (Homo sapiens)) for the following compound: `CSC[C@H]1O[C@@H](n2cnc3c(N)ncnc32)[C@H](N)[C@@H]1O`
## Result 0.67 s⁻¹

## Task Using S-methyl-5'-thioadenosine phosphorylase (Homo sapiens) as the test system, report measured K cat of `Nc1ncnc2c1ncn2[C@@H]1O[C@H](CSC2CCCC2)[C@@H](O)[C@H]1O` .
## Result 1.5 s⁻¹

## Task Provide the reported K cat (system: S-methyl-5'-thioadenosine phosphorylase (Homo sapiens)) for `CC(C)(C)SC[C@H]1O[C@@H](n2cnc3c(N)ncnc32)[C@H](O)[C@@H]1O`
## Result 0.85 s⁻¹

* * *

Target: S-methyl-5'-thioadenosine phosphorylase (Homo sapiens) (UniProt Q13126)
Experiment: Ratio of Kcat to Km against human Methylthioadenosine phosphorylase
attribute-measured: Ratio (µM⁻¹ s⁻¹)
Give your result in µM⁻¹ s⁻¹ as a bare value.

## Task Retrieve Ratio measured for `CSC[C@H]1O[C@@H](n2cnc3c(N)ncnc32)C[C@@H]1O` and print it.
## Result 0.09

## Task Give the value of Ratio reported for the following: `Nc1ncnc2c1ncn2[C@@H]1O[C@H](COc2ccccc2)[C@@H](O)[C@H]1O`
## Result 0.09

## Task Supply Ratio value. Item: `Nc1ncnc2c1ncn2[C@@H]1O[C@H](CSC2CCCC2)[C@@H](O)[C@H]1O`
## Result 0.47

## Task State its Ratio: `CC(C)CSC[C@H]1O[C@@H](n2cnc3c(N)ncnc32)[C@H](O)[C@@H]1O`
## Result 0.74

## Task Specify Ratio for `Nc1ncnc2c1ncn2[C@@H]1O[C@H](CSCCc2ccccn2)[C@@H](O)[C@H]1O` and stop.
## Result 0.09

* * *

Give measured Ratio for each item. Keep answers brief.
Target: S-methyl-5'-thioadenosine phosphorylase (Homo sapiens)
Sequence (whole entry): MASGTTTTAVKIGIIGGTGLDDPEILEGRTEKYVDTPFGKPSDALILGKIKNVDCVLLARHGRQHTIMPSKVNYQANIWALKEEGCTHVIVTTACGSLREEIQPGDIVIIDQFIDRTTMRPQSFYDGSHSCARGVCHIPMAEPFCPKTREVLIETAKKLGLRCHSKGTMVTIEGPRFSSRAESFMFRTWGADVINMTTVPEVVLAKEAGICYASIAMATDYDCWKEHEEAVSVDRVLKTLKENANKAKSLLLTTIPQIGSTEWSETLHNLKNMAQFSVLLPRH
Experiment: Ratio of Kcat to Km against human Methylthioadenosine phosphorylase
Give the number; µM⁻¹ s⁻¹ is assumed, so skip it.

## Task Supply measured Ratio of `Nc1ncnc2c1ncn2[C@@H]1O[C@H](CSCCc2ccccc2)[C@@H](O)[C@H]1O` in your reply.
## Result 0.43

## Task Determine its reported Ratio: `Nc1ncnc2c1ncn2[C@@H]1O[C@H](CSc2ccccc2)[C@@H](O)[C@H]1O`
## Result 0.5

## Task Recall and state the measured Ratio for `Nc1ncnc2c1ncn2[C@@H]1O[C@H](CSc2ncc[nH]2)[C@@H](O)[C@H]1O` .
## Result 0.42

## Task Tell me its Ratio given CSC[C@H]1O[C@@H](n2cnc3c(N)ncnc32)[C@H](O)[C@@H]1O (stereo in doubt; 7) as the entry.
## Result 0.0001

* * *

Target: S-methyl-5'-thioadenosine phosphorylase (Homo sapiens) (UniProt Q13126)
Test: Kcat against human methylthioadenosine phosphorylase expressed in Escherichia coli BL21 DE3 cells
attribute-measured: K cat (s⁻¹)
Express your answer in s⁻¹, writing the number without its unit.

## Task Write down K cat measured for item `Nc1ncnc2c1ncn2[C@@H]1O[C@H](CCc2ccccc2)[C@@H](O)[C@H]1O`
## Result 4.6

## Task Fill in reported K cat for this entry: `Nc1ncnc2c1ncn2[C@@H]1O[C@H](CSC2CCCCC2)[C@@H](O)[C@H]1O`
## Result 1.57

## Task Indicate the recorded K cat value for this compound: `Cc1ccccc1SC[C@H]1O[C@@H](n2cnc3c(N)ncnc32)[C@H](O)[C@@H]1O`
## Result 0.18

## Task Look up K cat of `Nc1ncnc2c1ncn2[C@@H]1O[C@H](CSc2ccncc2)[C@@H](O)[C@H]1O` and report it.
## Result 0.23

## Task Please indicate K cat recorded for `CCSC[C@H]1O[C@@H](n2cnc3c(N)ncnc32)[C@H](O)[C@@H]1O`
## Result 2.9

* * *

Target: S-methyl-5'-thioadenosine phosphorylase (Homo sapiens) (UniProt Q13126)
Sequence (whole entry): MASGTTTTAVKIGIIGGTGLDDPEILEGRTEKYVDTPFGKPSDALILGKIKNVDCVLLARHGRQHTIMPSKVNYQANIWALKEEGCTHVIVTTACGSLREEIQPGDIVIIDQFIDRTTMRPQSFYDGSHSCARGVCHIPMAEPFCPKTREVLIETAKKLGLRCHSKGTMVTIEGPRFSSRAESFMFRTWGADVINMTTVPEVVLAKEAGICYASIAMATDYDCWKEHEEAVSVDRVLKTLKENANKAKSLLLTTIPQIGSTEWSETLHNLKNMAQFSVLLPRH
Assay: Kcat against human methylthioadenosine phosphorylase expressed in Escherichia coli BL21 DE3 cells
Rule: K cat under 2 s⁻¹ gives class 0, otherwise class 1.

## Task K cat >= 2 s⁻¹ for `CC(C)CSC[C@H]1O[C@@H](n2cnc3c(N)ncnc32)[C@H](O)[C@@H]1O` ?
## Result class 1

## Task Determine whether this compound has K cat no lower than 2 s⁻¹: `Nc1ncnc2c1ncn2[C@@H]1O[C@H](CSc2ccc(C(F)(F)F)cc2)[C@@H](O)[C@H]1O`
## Result class 0

## Task Does the reported K cat for `CSC[C@@H]1C[C@@H](O)[C@H](n2cnc3c(N)ncnc32)O1` fall at or above the 2 s⁻¹ mark?
## Result class 0

## Task Tell me whether K cat is at least 2 s⁻¹ here: `Nc1ncnc2c1ncn2[C@@H]1O[C@H](CSc2ccccn2)[C@@H](O)[C@H]1O`
## Result class 1

## Task Threshold query (K cat >= 2 s⁻¹) on `Nc1ncnc2c1ncn2[C@@H]1O[C@H](CSc2ccc3ccccc3n2)[C@@H](O)[C@H]1O`
## Result class 1

## Task Does the reported K cat for `COc1ccc(SC[C@H]2O[C@@H](n3cnc4c(N)ncnc43)[C@H](O)[C@@H]2O)cc1` fall at or above the 2 s⁻¹ mark?
## Result class 0

## Task Does `Nc1ncnc2c1ncn2[C@@H]1O[C@H](CSc2nccs2)[C@@H](O)[C@H]1O` have a reported K cat of at least 2 s⁻¹?
## Result class 1

## Task Quick check: does `Nc1ncnc2c1ncn2[C@@H]1O[C@H](CSCc2ccccc2)[C@@H](O)[C@H]1O` have K cat greater than or equal to 2 s⁻¹?
## Result class 1

* * *

Target: S-methyl-5'-thioadenosine phosphorylase (Homo sapiens)
Sequence (whole entry): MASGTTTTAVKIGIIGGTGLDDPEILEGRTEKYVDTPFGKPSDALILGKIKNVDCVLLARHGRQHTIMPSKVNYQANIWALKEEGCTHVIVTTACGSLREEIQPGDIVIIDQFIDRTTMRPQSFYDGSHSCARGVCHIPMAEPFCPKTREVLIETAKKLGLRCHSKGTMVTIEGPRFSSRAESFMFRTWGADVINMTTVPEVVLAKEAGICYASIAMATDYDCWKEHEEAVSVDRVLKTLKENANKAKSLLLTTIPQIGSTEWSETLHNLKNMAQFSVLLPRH
Experiment: Ratio of Kcat to Km against human Methylthioadenosine phosphorylase
attribute-measured: log10 of Ratio (log10 of the value in µM⁻¹ s⁻¹)
All values: log10 Ratio [µM⁻¹ s⁻¹].

## Task Identify measured log10 of Ratio corresponding to `Nc1ncnc2c1ncn2[C@@H]1O[C@H](CSCc2ccccc2)[C@@H](O)[C@H]1O`
## Result -0.28

## Task Determine from records and report log10 of Ratio for `CCSC[C@H]1O[C@@H](n2cnc3c(N)ncnc32)[C@H](O)[C@@H]1O`
## Result 0.20

## Task Read off the recorded log10 of Ratio for CSC[C@H]1O[C@@H](n2cnc3c(N)ncnc32)[C@H](O)[C@@H]1O (stereo in doubt; 1)
## Result 0.51

## Task Using known records, supply log10 of Ratio for `Cc1ccc(SC[C@H]2O[C@@H](n3cnc4c(N)ncnc43)[C@H](O)[C@@H]2O)cc1`
## Result -0.03

## Task Report log10 of Ratio, nothing else, for this molecule: `Nc1ncnc2c1ncn2[C@@H]1O[C@H](CSc2ccc(C(F)(F)F)cc2)[C@@H](O)[C@H]1O`
## Result -0.77
